- system name: T1, Anti-PSMA Fab (SEQ ID NOs: 19, 20)
- T1 construct: Biotinylated and captured on neutravidin coated plates in the phage ELISA; also called 006 PSMA Fab
- protocol description: phage binding ELISA; biotinylated anti-PSMA Fab captured on neutravidin, bound phage detected with anti-M13 HRP
# Anti-PSMA Fab (SEQ ID NOs: 19, 20) signal per entry
Lab note: record just the number, no unit beside it.

binder: LEKTCIPTWMCVGF [Phage-1784 (clonal phage displaying the peptide of SEQ ID NO: 2080)]
obs value: 1.88

binder: LDKWCVPKWMCSGL [Phage-1782 (clonal phage displaying the peptide of SEQ ID NO: 2078)]
obs value: 1.92

binder: IDIRCTPIWMCVGF [Phage-1789 (clonal phage displaying the peptide of SEQ ID NO: 2085)]
obs value: 1.57

binder: GEKWCIPDWMCSGF [Phage-1783 (clonal phage displaying the peptide of SEQ ID NO: 2079)]
obs value: 1.91

binder: VTKWCIPPWMCEVT (also called Peptide-230) [Phage-1780 (clonal phage displaying the peptide of SEQ ID NO: 2076)]
obs value: 2

binder: LDNWCKPSWMCTGF [Phage-1777 (clonal phage displaying the peptide of SEQ ID NO: 2073)]
obs value: 2.05

Here is another binder to look at.
// Anti-PSMA Fab (SEQ ID NOs: 19, 20) signal lookup, key: EFKWCIPSWMCHET [Phage-1778 (clonal phage displaying the peptide of SEQ ID NO: 2074)]
2.02

Origin of values: patent US20260242478A1
